# Test system: sirtuin-5
# method: Expression of the gene coding for sirtuin-5, quantitative RT-PCR in NHDF
# Assay type: cell-based
# particulars: normal human fibroblasts (NHDF), 10^−5 M in 0.1% DMSO, 24 hours, mRNA by quantitative RT-PCR
property.measured: Expression of sirtuin-5 relative to the basal level taken to 100% (%)

>>> recorded_measurement("COc1ccc2[nH]cc(CCNC(=O)/C=C/c3ccc(O)c(O)c3)c2c1 [(IIa)]")
153
>>> recorded_measurement("O=C(/C=C/c1ccc(O)c(O)c1)NCCc1c[nH]c2ccc(O)cc12 [(IIf)]")
140
>>> recorded_measurement("O=C(NCCc1c[nH]c2ccc(O)cc12)c1ccc(O)c(O)c1 [(IIe)]")
146
>>> recorded_measurement("COc1ccc2[nH]cc(CCNC(=O)/C=C/c3ccc(O)cc3)c2c1 [(IIb)]")
125
